TESTED_TARGET: PPARδ (NR1C2) (Homo sapiens)
Construct: expressed in transfected cells; host or cells: NIH-3T3
Sequence (Q03181 whole entry): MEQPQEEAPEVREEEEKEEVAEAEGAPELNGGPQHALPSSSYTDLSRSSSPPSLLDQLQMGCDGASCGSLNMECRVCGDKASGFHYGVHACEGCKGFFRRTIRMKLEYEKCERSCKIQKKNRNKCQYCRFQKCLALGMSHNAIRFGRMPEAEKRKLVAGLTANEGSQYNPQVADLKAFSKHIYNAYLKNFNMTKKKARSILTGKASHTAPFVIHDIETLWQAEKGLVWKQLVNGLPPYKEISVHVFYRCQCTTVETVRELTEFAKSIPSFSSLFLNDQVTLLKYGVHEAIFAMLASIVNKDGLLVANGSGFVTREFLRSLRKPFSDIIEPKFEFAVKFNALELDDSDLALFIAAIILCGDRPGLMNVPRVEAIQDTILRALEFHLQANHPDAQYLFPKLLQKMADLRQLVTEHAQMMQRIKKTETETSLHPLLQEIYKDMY
ASSAY_METHOD_TEXT: R-SAT single receptor format, PPARδ
Format: cell-based
TEST_CONDITIONS: NIH-3T3 cells transfected with PPARδ
Description: Curves were generated using XLFit software ([…]).
ENDPOINT_NAME: EC50

**Q:** Please look up its EC50: CCCCC[C@H](O)/C=C/[C@@H]1[C@H]2C/C(=C/CCCC(=O)O)C[C@H]2C[C@H]1O
**A:** 200 to 500 nM

---

TESTED_TARGET: LXRα (NR1H3) (Homo sapiens, UniProt Q13133)
Sequence (Q13133 1-447): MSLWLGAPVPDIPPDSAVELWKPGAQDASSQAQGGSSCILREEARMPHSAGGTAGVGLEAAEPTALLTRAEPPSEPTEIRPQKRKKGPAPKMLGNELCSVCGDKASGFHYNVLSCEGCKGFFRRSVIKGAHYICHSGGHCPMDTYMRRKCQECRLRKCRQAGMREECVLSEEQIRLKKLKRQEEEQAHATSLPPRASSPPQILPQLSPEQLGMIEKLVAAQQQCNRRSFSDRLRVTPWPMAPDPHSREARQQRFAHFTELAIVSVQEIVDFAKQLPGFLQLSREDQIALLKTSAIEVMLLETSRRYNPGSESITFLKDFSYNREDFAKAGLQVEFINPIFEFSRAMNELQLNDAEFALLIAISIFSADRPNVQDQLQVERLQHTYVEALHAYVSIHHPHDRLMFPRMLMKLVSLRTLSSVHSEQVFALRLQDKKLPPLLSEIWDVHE
ASSAY_METHOD_TEXT: R-SAT single receptor format, LXRα
TEST_CONDITIONS: NIH-3T3 cells transfected with LXRα
ENDPOINT_NAME: EC50

**Q:** Please look up its EC50: CC(C)CC[C@@H](O)[C@@H](C)[C@H]1CC[C@H]2[C@@H]3CC=C4C[C@@H](O)CC[C@]4(C)[C@H]3CC[C@]12C [22(R)OH-Cholesterol]
**A:** 3 to 5 µM

---

TESTED_TARGET: LXRβ (NR1H2) (Homo sapiens)
Sequence (P55055 whole entry): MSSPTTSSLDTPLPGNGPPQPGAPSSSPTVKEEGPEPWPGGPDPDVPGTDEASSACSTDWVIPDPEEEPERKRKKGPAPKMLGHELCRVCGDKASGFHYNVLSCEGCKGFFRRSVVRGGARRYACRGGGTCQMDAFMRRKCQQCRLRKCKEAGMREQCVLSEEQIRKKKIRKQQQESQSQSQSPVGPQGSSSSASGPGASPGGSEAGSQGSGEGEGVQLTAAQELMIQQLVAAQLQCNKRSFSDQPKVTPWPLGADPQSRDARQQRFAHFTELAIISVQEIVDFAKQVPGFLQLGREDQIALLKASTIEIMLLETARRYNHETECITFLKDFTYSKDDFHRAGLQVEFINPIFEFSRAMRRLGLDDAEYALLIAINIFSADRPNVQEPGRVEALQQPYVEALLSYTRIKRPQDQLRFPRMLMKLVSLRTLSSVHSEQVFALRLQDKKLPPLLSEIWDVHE
ASSAY_METHOD_TEXT: R-SAT single receptor format, LXRβ
TEST_CONDITIONS: NIH-3T3 cells transfected with LXRβ
pEC50: −log10 of the molar value.
ENDPOINT_NAME: pEC50

**Q:** Please look up its pEC50: CC(C)CC[C@@H](O)[C@@H](C)[C@H]1CC[C@H]2[C@@H]3CC=C4C[C@@H](O)CC[C@]4(C)[C@H]3CC[C@]12C [22(R)OH-Cholesterol]
**A:** 5.30 to 5.52

Data origin, for the record: patent US20060134670A1
